# target.or.test.system: monomeric alpha-synuclein, P37840
# measurement.protocol: SPR, captured mAb
# condition.info: remark: other sources report otherwise
Lab note: anything with koff at or over 0.001 s⁻¹ counts as criterion met; the rest go in criterion not met.

Record excerpt, results attached:
binder	group.label
ACI-7079-2506F3-Ab1 (antibody, V domains shown) VH: QVQLQQPGAELVKPGASVKLSCKASGYTFTTYWMQWVKQRPGQGLEWIGEIDPSDSYINYNQKFKGKATLTVDTSSSTAFMQLSSLTSEDSAVYYCARGMMDYWGQGTSVTVSS VL: DVLMTQTPLSLPVSLGDQASISCRSSQSIVHSNGNTYLEWYLQKPGQSPKLLIYKVSNRFSGVPDRFSGSGSGTDFTLKISRVEAEDLGVYYCFKGSHVPYTFGGGTKLEIK	criterion not met
ACI-7079-2605B3-Ab2 (antibody, V domains shown) VH: EVQLVESGGGLVQPKGSLKLSCAASGFIFKTYAMHWVRQAPGKGLEWVARIRSKGGNYATYFADSVKDRFTISRDDSQNMLYLQVNNLKIEDTAMYFCVRGGNYSWFAYWGQGTLVTVSA VL: QIVLTQSPAIMSASPGEKVTMTCSASSSVTYMHWYQQKSGTSPKRWIYDTSQLASGVPARFSGSGSGTSHSLTISSMETEDAATYYCQQWTRNPPTFGGGTKLAIK	criterion met
ACI-7067-1107G5-Ab2 (antibody, V domains shown) VH: QVQLQQPGTELVKPGASVKLSCKASGYTFTKYWMHWVKQRPGQGLEWIGNINPNNGDTNYNEKFKSKATLTVDKSSSTAYMQLSSLTSEDSAVYYCAIAMDYWGQGTSVTVSS VL: DIQMTQSPSSLSAFLGERVSLTCRASQDIGNNLNWFQQEPDGTIKRLIYATSSLDSGVPKRFSGSRSGSEYSLTISSLESEDFVDYYCLQFGSSPLTFGAGTKLELK	criterion met

Assess whether reported koff for ACI-7067-1111B12-Ab2 (antibody, V domains shown) VH: QVQLLQPGTALVMPGASVKLSCKASGYTFTTYWMHWVKQRPGQGLEWIGNINPINGGSNYNEKFKSKASLTVDKSSSTAYMQLSSLTSEDSAVYYCVIAMDYWGQGTSVTVSS VL: DIQMTQSPSSLSASLGERVSLTCRASQDIGISLNWFQQEPDGTIKRLIYATSSLDSGVPKRFSGNRSGSDYSLTISSLESEDFADYYCLQFASSPLTFGAGTKLELK sits at 0.001 s⁻¹ or higher. criterion met

Assess whether reported koff for ACI-7067-1108H1-Ab1 (antibody, V domains shown) VH: EVKLVESGGGLVQPGGSMKLSCTASGFTFSDAWMNWVRQSPEKGLEWVAEIRNKAHNHATNYAESVKGRFTISGDDSKSSVYLQMNNLRAEDTGIYYCTIYSFWGQGTLVTVSA VL: SIVMTQTPKFLLVSAGDRVTITCKASQSVTNYVAWYHQKPGQSPKLLIYSASNRYSGVPDRFTGSGYGTDFTFTINTVQTEDLAVYFCQQDYRIPYTFGGGTKLEIK sits at 0.001 s⁻¹ or higher. criterion not met
